# Measured On: human CYP2D6, CYP2D6 (gene 1565) (UniProt P10635)
# Sequence (P10635 whole entry, looked up): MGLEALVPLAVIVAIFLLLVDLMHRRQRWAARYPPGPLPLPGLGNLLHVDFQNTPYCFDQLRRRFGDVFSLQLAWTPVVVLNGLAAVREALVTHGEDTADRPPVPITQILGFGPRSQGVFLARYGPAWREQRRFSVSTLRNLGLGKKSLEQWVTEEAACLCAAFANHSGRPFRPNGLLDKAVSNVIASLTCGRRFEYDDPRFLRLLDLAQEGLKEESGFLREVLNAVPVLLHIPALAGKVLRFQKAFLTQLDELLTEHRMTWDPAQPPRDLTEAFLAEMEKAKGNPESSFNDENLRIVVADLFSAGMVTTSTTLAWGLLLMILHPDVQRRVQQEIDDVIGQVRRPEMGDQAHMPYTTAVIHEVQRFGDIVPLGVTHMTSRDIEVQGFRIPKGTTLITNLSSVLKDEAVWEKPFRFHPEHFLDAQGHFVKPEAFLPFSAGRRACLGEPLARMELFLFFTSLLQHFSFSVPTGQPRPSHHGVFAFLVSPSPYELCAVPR
# Experimental Details: NVS_ADME_hCYP2D6: NovaScreen (NVS) CYP450-related Enzyme Activity (ADME) Assay for human CYP2D6 (AID 2283107)
The source made the active and inactive calls. Rule for the calls: active = hit-call score of the fitted dose curve at least 0.9, where 1 is the maximum; inconclusive = response in the unintended direction; inactive = score below 0.9.
Allowed answers: y for active, n for inactive

| Compound | Class Assignment |
| --- | --- |
| Cc1ccc(N=CN(C)C=Nc2ccc(C)cc2C)c(C)c1 | n |
| CCCCC(C#N)(Cn1cncn1)c1ccc(Cl)cc1 (centres undefined) | n |
| COc1ccc(-c2ccccc2)cc1NNC(=O)OC(C)C | n |
| CCOC(=O)C(C)OC(=O)c1cc(Oc2ccc(C(F)(F)F)cc2Cl)ccc1[N+](=O)[O-] (centres undefined) | n |
| CCNP(=S)(OC)O/C(C)=C/C(=O)OC(C)C (centres undefined) | y |

Q. How did this test come out for Cn1c(-c2ccccc2)cc(-c2ccccc2)[n+]1C ?
A. y

Q. How did this test come out for CSC(=O)c1c(C(F)F)nc(C(F)(F)F)c(C(=O)SC)c1CC(C)C ?
A. y

Q. How did this test come out for N#CN=C1SCCN1Cc1ccc(Cl)nc1 ?
A. n

Q. How did this test come out for COP(=S)(OC)Oc1ccc([N+](=O)[O-])c(C)c1 ?
A. y

* * *

# Experimental Details: BSK_SAg_PBMCCytotoxicity: PBMC Cytotoxicity Assessment in the BioMAP Diversity Plus: SAg Assay (AID 2283093);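 note: PBMC viability measured as Alamar Blue reduction fluorescence at 546/580 nm; fitted both ways against DMSO so a hit may be loss or gain of signal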
# Protocol Conditions: primary human HUVEC with PBMC
# Experimental: BSK_SAg is a cell-based, multiplexed-readout assay that uses umbilical vein endothelium and peripheral blood mononuclear cells, a human vascular primary cell co-culture, with measurements taken at 24 hours after chemical dosing in a 96-well plate.BSK_SAg_PBMCCytotoxicity is an assay component measured in the BSK_SAg assay. It measures Alamar blue related to cell death using Alamar Blue Reduction technology.Data from the assay component BSK_SAg_PBMCCytotoxicity was analyzed into 1 assay endpoint. […]
Active and inactive are the calls of the source. Rule for the calls: active = hit-call score of the fitted dose curve at least 0.9, where 1 is the maximum; inactive = score below 0.9.
Allowed answers: T for active, F for inactive

# count of solved cases: 3
| Compound | Class Assignment |
| --- | --- |
| CCN(CC)c1nc(C)cc(OP(=S)(OC)OC)n1 | F |
| Nc1c(Cl)c(F)nc(OCC(=O)O)c1Cl | F |
| CSC(=O)c1c(C(F)F)nc(C(F)(F)F)c(C(=O)SC)c1CC(C)C | T |

Q. How did this test come out for Cc1ccc(N=CN(C)C=Nc2ccc(C)cc2C)c(C)c1 ?
A. T

Q. How did this test come out for N#CN=C1SCCN1Cc1ccc(Cl)nc1 ?
A. F

Q. How did this test come out for CN=C=S ?
A. F

Q. How did this test come out for C=CCOC(=O)C(C)(C)OC(=O)c1cc(-n2c(=O)cc(C(F)(F)F)n(C)c2=O)ccc1Cl ?
A. F

* * *

# Experimental Details: APR_HepG2_MitoMembPot_24hr: Apredica 24-hour HepG2 Assay for Mitochondrial Membrane Potential (AID 2282911)
# Protocol Conditions: imaging, actives raise or lower the signal
Activity calls are given as the source filed them. How the source made its calls: active means hit-call score of the fitted dose curve at least 0.9, where 1 is the maximum; inactive means score below 0.9.
Allowed answers: true for active, false for inactive

| Compound | Class Assignment |
| --- | --- |
| CC(C)N1C(=O)c2ccccc2NS1(=O)=O | false |
| Clc1nc(Cl)nc(Nc2ccccc2Cl)n1 | false |

Q. How did this test come out for CC1(C)C(C(=O)OC(C#N)c2cccc(Oc3ccccc3)c2)C1(C)C (centres undefined) ?
A. false

Q. How did this test come out for COCC(C)N(C(=O)CCl)c1c(C)csc1C (centres undefined) ?
A. false

Q. How did this test come out for CCN(CC)c1nc(C)cc(OP(=S)(OC)OC)n1 ?
A. false

Q. How did this test come out for COCC(=O)N(c1c(C)cccc1C)C(C)C(=O)OC (centres undefined) ?
A. false
